// compounds with reported IC50 on Cytochrome P450 2C9 (Homo sapiens), multi-publication

Please state IC50 for every compound in the list that follows.
1. Cc1cc(C(F)(F)F)ccc1-c1cc2cnn([C@@H](CC(C)C)c3ccc(C(=O)NCCC(=O)O)cc3)c2cc1C
2. CC(C)(C)c1ccccc1Oc1ccc(-c2cccc(C(=O)O)c2)cc1NC(=O)Nc1ccc(OC(F)(F)F)cc1
3. CCS(=O)(=O)CCc1c(Cn2c(=O)n(C3CC3)c3ccncc32)nc2cc(Cl)ccn12
4. CN(C)CCC1(c2ccccc2)CCCN(C(=O)Nc2ccc(Cl)cc2)C1 (centres undefined)

Reply:
1: > 10 µM; 2: 2.5 µM; 3: > 50 µM; 4: > 10 µM

====

System: Cytochrome P450 2C9 (Homo sapiens, UniProt P11712) | Read-out: IC50 | Origin: multiple publications

Ask: // lookup IC50 for `CC(C)(C)Sc1c(CC(C)(C)C(=O)O)n(Cc2ccc(-c3ncccn3)cc2)c2ccc(OCc3ccccn3)cc12`
Reply: > 10 µM

Ask: Try this compound too: `CS(=O)(=O)NC[C@H]1CC[C@H](Nc2nc3c(s2)CCSc2ccccc2-3)CC1`
Reply: > 10 µM

Ask: Continue with `Cc1cc(-c2ccc3c(c2)-c2nnc(Nc4cccc(Cl)c4)n2CCO3)ccn1`
Reply: 3.44 µM

Ask: Param item: `COc1cc(Cl)ccc1O[C@@H](c1ccccc1)[C@@H]1CNCCO1`
Reply: > 29 µM

Report IC50 for every entry below.
1. Cc1ccc2[nH]c(C(=O)N3CCC(CC(C)(C)O)CC3)cc2c1
2. Cc1cccc(C)c1CNc1nc(N2CCNC2=O)cc2c(C)c(C)[nH]c12
3. COCc1ccnc(OCc2cn(-c3ccc(F)c(OC(F)F)c3)nn2)n1
4. O=C1CCCN1Cc1ccc(-n2nc(C(F)(F)F)c3c2CCCC3)cc1
5. CCCCCC[C@@H]1CCc2cc([C@H]3CC[C@](N)(CO)C3)ccc2C1
6. OC1C2CC3CC(C2)CC1C3 (stereo unspecified)
7. CC(C)OC(=O)c1ccc(NC(=O)N[C@@H](Cc2ccc(O)cc2)C(=O)N[C@H]2CCC[N+](C)(Cc3cccc(O)c3)C2)cc1.[I-] (stereo partly specified)

Reply:
["> 25 µM", "2.7 µM", "> 10 µM", "5 µM", "> 20 µM", "22 µM", "> 10 µM"]

====

Values of IC50 for Cytochrome P450 2C9 (Homo sapiens), collected from a number of published sources:

Ask: What measured IC50 goes with `Nc1nc2c(O)cc(C(=O)NCc3ccccc3)cc2s1` ?
Reply: > 25 µM

Ask: Subsequent entry: CC#CCOc1ccc2cc(C(c3ccc(C#N)cc3)n3cncn3)oc2c1 (configuration not stated)
Reply: > 25 µM

Ask: // next record `Cc1cc(N2CC[C@H](N3CCC[C@H]3C)C2)ccc1NC(=O)c1cc(F)ccc1C`
Reply: > 30 µM

Could you report IC50 for every entry in the following list?
1. CN(C)C(=O)c1ccc(N(Cc2ccc(Br)o2)C(=O)c2ccc(O)cc2O)cc1
2. C[C@H](COc1ccc(-c2ccc(=O)n(C)n2)cc1)CN1CCC[C@H]1C

Reply:
["> 20 µM", "> 30 µM"]

Hi team, please reply with IC50 for each item in this list.
1. Cc1ncoc1-c1nnc(SCCCN2CC3CC3(c3cccc(S(F)(F)(F)(F)F)c3)C2)n1C (single isomer, unassigned; 11)
2. CC(NC(=O)c1ccc(C(F)(F)F)cc1Cl)C1(N2CCN(S(=O)(=O)c3cn(C)nn3)CC2)CCC(F)(F)CC1.Cl (single isomer, unassigned; (+))
3. Cc1c(-c2ccccc2)nn(-c2nc(C(=O)O)cs2)c1-c1ccccc1
4. CSc1ccc2nc(N)sc2c1

Reply:
2 µM
> 7.2 µM
> 10 µM
> 25 µM

Give IC50 for all molecules that follow.
1. C=CC(=O)Nc1cc(Oc2nc(Nc3ccc(N4CCN(C)CC4)cc3OC)ccc2N2CCCC2)ccc1C
2. CNc1nc(C)nc(N2CCC(C(=O)NCc3ccccc3OC(F)(F)F)CC2)n1
3. COC(=O)c1ccc(CS(=O)(=O)c2ccc3nc(N)sc3c2)cc1

Reply:
1: > 10 µM; 2: > 25 µM; 3: 10 to 25 µM
